Data provenance is patent US8178530B2.

System: MAPKAPK5 (Homo sapiens, UniProt Q8IW41) | Read-out: IC50
Sequence (Q8IW41 whole entry): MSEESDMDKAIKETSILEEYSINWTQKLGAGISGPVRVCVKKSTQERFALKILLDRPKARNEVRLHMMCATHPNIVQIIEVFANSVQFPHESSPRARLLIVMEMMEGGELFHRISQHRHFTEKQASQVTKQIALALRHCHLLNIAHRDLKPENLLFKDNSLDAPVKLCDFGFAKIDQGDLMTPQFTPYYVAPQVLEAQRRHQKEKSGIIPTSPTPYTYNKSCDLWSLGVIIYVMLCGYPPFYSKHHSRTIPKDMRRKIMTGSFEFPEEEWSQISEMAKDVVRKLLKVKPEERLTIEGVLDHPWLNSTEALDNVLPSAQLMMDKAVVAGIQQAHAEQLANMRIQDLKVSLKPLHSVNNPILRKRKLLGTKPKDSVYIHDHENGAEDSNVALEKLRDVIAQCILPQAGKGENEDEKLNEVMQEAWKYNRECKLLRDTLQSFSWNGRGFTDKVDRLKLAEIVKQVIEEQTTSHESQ
QUANTITY_NAME: IC50

| MOLECULE | ASSAYED_TARGET | RESULT |
| --- | --- | --- |
| O=C(c1ccc(Nc2ncc(-c3cn[nH]c3)n3ccnc23)cc1)N1CCOCC1 [Compound 45] | MAPKAPK5 (Homo sapiens, UniProt Q8IW41) | 501 to 1000 nM |
| Cn1nnc(-c2ccc(Nc3ncc(-c4ccc(C(N)=O)cc4)n4ccnc34)cc2)n1 [Compound 170] | MAPKAPK5 (Homo sapiens, UniProt Q8IW41) | > 1000 nM |
| CCN(CC)CCNC(=O)c1ccc(Nc2ncc(-c3n[nH]c(C)n3)n3ccnc23)cc1 [Compound 106] | MAPKAPK5 (Homo sapiens, UniProt Q8IW41) | > 1000 nM |
| CCN(CC)CCNC(=O)c1ccc(Nc2ncc(-c3cn[nH]c3)n3ccnc23)cn1 [Compound 103] | MAPKAPK5 (Homo sapiens, UniProt Q8IW41) | 501 to 1000 nM |
| CC(C)N1CCC(c2ccc(Nc3ncc(-c4cn[nH]c4)n4ccnc34)cc2)CC1 [Compound 202] | MAPKAPK5 (Homo sapiens, UniProt Q8IW41) | 101 to 500 nM |
| CN(C)Cc1cn(-c2ccc(Nc3ncc(-c4ccc(C(N)=O)cc4)n4ccnc34)cc2)nn1 [Compound 166] | MAPKAPK5 (Homo sapiens, UniProt Q8IW41) | > 1000 nM |
| NC(=O)CN1CCC(c2ccc(Nc3ncc(-c4ccc5c(c4)CNC5=O)n4ccnc34)cc2)CC1 [Compound 226] | MAPKAPK5 (Homo sapiens, UniProt Q8IW41) | 101 to 500 nM |
| CN1CCN(c2ccc(Nc3ncc(-c4csc(C(N)=O)c4)n4ccnc34)cc2)CC1 [Compound 118] | MAPKAPK5 (Homo sapiens, UniProt Q8IW41) | 101 to 500 nM |
| CN1CCN(c2ccc(Nc3ncc(-c4cncc(C(N)=O)c4)n4ccnc34)cc2)CC1 [Compound 121] | MAPKAPK5 (Homo sapiens, UniProt Q8IW41) | > 1000 nM |
| C[C@@H]1CN(c2ccc(Nc3ncc(-c4cc(F)c(C(N)=O)c(F)c4)n4ccnc34)cc2)[C@@H](C)CN1C [Compound 181] | MAPKAPK5 (Homo sapiens, UniProt Q8IW41) | 101 to 500 nM |
| CC(C)N1CCN(c2ccc(Nc3ncc(-c4ccc5c(c4)C(C)(C)NC5=O)n4ccnc34)cc2)CC1 [Compound 227] | MAPKAPK5 (Homo sapiens, UniProt Q8IW41) | > 1000 nM |
| CN1CCN(c2ccc(Nc3ncc(-c4ccc(C(N)=O)o4)n4ccnc34)cc2)CC1 [Compound 139] | MAPKAPK5 (Homo sapiens, UniProt Q8IW41) | > 1000 nM |
| Nc1cc(C(=O)O)ccc1-c1cnc(Nc2ccc(N3CCOCC3)cc2)c2nccn12 [Compound 40] | MAPKAPK5 (Homo sapiens, UniProt Q8IW41) | > 1000 nM |
| CN1CCN(c2ccc(Nc3ncc(-c4ccc(C(N)=O)nc4)n4ccnc34)cc2)CC1 [Compound 129] | MAPKAPK5 (Homo sapiens, UniProt Q8IW41) | > 1000 nM |
| CCN(CC)CCNS(=O)(=O)c1ccc(Nc2ncc(-c3ccc(C(N)=O)cc3)n3ccnc23)cc1 [Compound 98] | MAPKAPK5 (Homo sapiens, UniProt Q8IW41) | > 1000 nM |
| CCN(CC)CCNS(=O)(=O)c1ccc(Nc2ncc(-c3cn[nH]c3)n3ccnc23)cc1 [Compound 69] | MAPKAPK5 (Homo sapiens, UniProt Q8IW41) | 101 to 500 nM |

----------
System: MMP1 expression by SFs
Assay: 'MMP assay': MMP1 expression by 'complex trigger' activated synovial fibroblasts (MMP1 ELISA)
Format: cell-based, human
Settings: Homo sapiens, Fibroblast, RASFs, 48 hrs
Procedure: A 384-well format ELISA for measurement of MMP1 is developed. Various primary antibodies are tested, as well as various ELISA protocols. […] Readout is performed on the Luminoscan Ascent Luminometer (Labsystems) with an integration time of 200 msec or with an Envision reader (Perkin Elmer). […]
pEC50: −log10 of the molar value.
Below, each entry is listed with its recorded pEC50.

| TEST_SMILES | pEC50 |
| --- | --- |
| Cc1cc(-c2cnc(Nc3ccc(N4CCOCC4)cc3)c3nccn23)cc(=O)[nH]1 | 6.30 to 7.00 |
| CCN(CC)CCNC(=O)c1ccc(Nc2ncc(-c3cn[nH]c3)n3ccnc23)c(F)c1 | < 6.00 |
| COc1cc(Nc2ncc(-c3csc(C(N)=O)c3)n3ccnc23)ccc1C(=O)NCc1ccccc1 | < 6.00 |
| CN1CCN(c2ccc(Nc3ncc(-c4ccc(C(N)=O)c(N(C)C)c4)n4ccnc34)cc2)CC1 | < 6.00 |
| O=c1cc(-c2cnc(Nc3ccc(N4CCOCC4)cc3)c3nccn23)cc[nH]1 | 6.00 to 6.30 |
| CC(C)Oc1ccc(Nc2ncc(-c3ccc(C(N)=O)c(F)c3)n3ccnc23)cc1 | 6.00 to 6.30 |
| CCN(CC)c1ccc(Nc2ncc(-c3cn[nH]c3)n3ccnc23)cc1 | < 6.00 |
| Nc1ccc(Nc2ncc(-c3cn[nH]c3)n3ccnc23)cn1 | < 6.00 |

----------
Below, each entry is listed with its recorded pIC50.
Target: MAPKAPK5 (Homo sapiens, UniProt Q8IW41)
Construct: 1 mU MAPKAP-K5
Test: MAPKAP-K5 assay (FlashPlate, 33P-ATP)
Format: biochemical
Settings: 0.6 μM ATP, 30 minutes at room temperature
pIC50: −log10 of the molar value.

| TEST_SMILES | pIC50 |
| --- | --- |
| CN1CCN(c2ccc(Nc3ncc(-c4cn[nH]c4)n4ccnc34)cc2)CC1 | < 6.00 |
| Cn1cnnc1-c1ccc(Nc2ncc(-c3ccc(C(N)=O)cc3)n3ccnc23)cc1 | < 6.00 |
| CCN(CCO)c1ccc(Nc2ncc(-c3ccc(O)cc3)n3ccnc23)cc1 | < 6.00 |
| CN1CCN(c2ccc(Nc3ncc(-c4ccc(C(N)=O)c(N(C)C)c4)n4ccnc34)cc2)CC1 | < 6.00 |
| CCN(CC)CCNC(=O)c1ccc(Nc2ncc(-c3cn[nH]c3)n3cc(C)nc23)cc1 | < 6.00 |
| NC(=O)c1ccc(-c2cnc(Nc3ccc(-n4cncn4)cc3)c3nccn23)cc1 | < 6.00 |
| CCN(CC)CCNC(=O)c1ccc(Nc2ncc(-c3ccc(O)c(OC)c3)n3ccnc23)cc1 | < 6.00 |
| NC(=O)c1cnc(-c2cnc(Nc3ccc(N4CCOCC4)cc3)c3nccn23)s1 | < 6.00 |
| C[C@@H]1CN(c2ccc(Nc3ncc(-c4csc(C(N)=O)c4)n4ccnc34)cc2)[C@@H](C)CN1C | 6.30 to 7.00 |
| CCN(CC)CCNC(=O)c1cccc(Nc2ncc(-c3cn[nH]c3)n3ccnc23)c1 | < 6.00 |
| O=C(NCc1ccc(O)cc1)c1ccc(Nc2ncc(-c3cc[nH]c(=O)c3)n3ccnc23)cc1 | 6.30 to 7.00 |
| CC(C)N1CCN(c2ccc(Nc3ncc(-c4ccc5c(c4)CNC5=O)n4ccnc34)cc2)CC1 | 7.00 to 9.00 |
| NC(=O)c1ccc(-c2cnc(Nc3ccc(-n4ccc(C(F)(F)F)n4)cc3)c3nccn23)cc1 | < 6.00 |
| CCN(CC)CCNC(=O)c1ccc(Nc2ncc(-c3ccc(CC(=O)O)cc3)n3ccnc23)cc1 | < 6.00 |
| Cc1cnc2c(Nc3ccc(N4CCOCC4)cc3)ncc(-c3cc[nH]c(=O)c3)n12 | < 6.00 |
| CC(C)N1CCN(c2ccc(Nc3ncc(-c4ccc(C(N)=O)cc4)n4ccnc34)cc2)CC1 | < 6.00 |

----------
System: MMP1 expression by SFs
Assay: 'MMP assay': MMP1 expression by 'complex trigger' activated synovial fibroblasts (MMP1 ELISA)
Type: cell-based, human
Details: Homo sapiens, Fibroblast, RASFs, 48 hrs

| TEST_SMILES | EC50 |
| --- | --- |
| NC(=O)c1cc(-c2cnc(Nc3ccc(NC(=O)c4ccccc4)nc3)c3nccn23)cs1 | > 1 µM |
| CCN(CC)CCNC(=O)c1ccc(Nc2ncc(-c3ccoc3)n3ccnc23)cc1 | > 1 µM |
| CC(C)N1CCN(c2ncc(Nc3ncc(-c4ccc5c(c4)CNC5=O)n4ccnc34)cn2)CC1 | 0.501 to 1 µM |
| NC(=O)Cn1cc(-c2cnc(Nc3ccc(N4CCOCC4)cc3)c3nccn23)cn1 | > 1 µM |
| CN1CCN(c2ccc(Nc3ncc(-c4ccnc(N)c4)n4ccnc34)cc2)CC1 | > 1 µM |
| CCN(CC)CCNC(=O)c1ccc(Nc2ncc(-c3cn[nH]c3)n3ccnc23)c(C)c1 | > 1 µM |
| CN1CCN(c2ccc(Nc3ncc(-c4ccc(C(N)=O)cn4)n4ccnc34)cc2)CC1 | > 1 µM |
| Nc1ccc(Nc2ncc(-c3cn[nH]c3)n3ccnc23)cc1 | > 1 µM |
| O=C(NCc1cccnc1)c1ccc(Nc2ncc(-c3cc[nH]c(=O)c3)n3ccnc23)cc1 | 0.101 to 0.5 µM |
| CC(C)N1CCC(c2ccc(Nc3ncc(-c4csc(C(N)=O)c4)n4ccnc34)cc2)CC1 | 0.101 to 0.5 µM |
| NC(=O)c1ccc(-c2cnc(Nc3ccc(-n4ccc(C(F)(F)F)n4)cc3)c3nccn23)cc1 | 0.101 to 0.5 µM |
| Nc1cc(C(=O)O)ccc1-c1cnc(Nc2ccc(N3CCOCC3)cc2)c2nccn12 | > 1 µM |
| CCN(CC)CCNC(=O)c1ccc(Nc2ncc(-c3ccc(O)c(OC)c3)n3ccnc23)cc1 | > 1 µM |
| CCN(CC)CCNC(=O)c1ccc(Nc2ncc(-c3cncc4ccccc34)n3ccnc23)cc1 | > 1 µM |
| FC(F)(F)CN1CCC(c2ccc(Nc3ncc(-c4cn[nH]c4)n4ccnc34)cc2)CC1 | > 1 µM |
| CCN(CCO)c1ccc(Nc2ncc(-c3ccc(N)cc3)n3ccnc23)cc1 | > 1 µM |
| CC(C)N1CCN(c2ccc(Nc3ncc(-c4ccc5c(c4)CNC5=O)n4ccnc34)cc2)CC1 | > 1 µM |
| CN1CCN(c2ccc(Nc3ncc(-c4ccc(C(=O)N5CCCC5)cc4)n4ccnc34)cc2)CC1 | > 1 µM |
| CN(C)c1ccc(CNC(=O)c2ccc(Nc3ncc(-c4cn[nH]c4)n4ccnc34)cc2)cc1 | 0.501 to 1 µM |
| COc1cc(Nc2ncc(-c3csc(C(N)=O)c3)n3ccnc23)ccc1C(=O)NCc1ccc(C)nc1 | 0.101 to 0.5 µM |
| NC(=O)c1ccc(-c2cnc(Nc3ccc(OCc4cccnc4)cc3)c3nccn23)cc1F | 0.101 to 0.5 µM |
| CCN(CC)CCNC(=O)c1ccc(Nc2ncc(C#N)n3ccnc23)cc1 | > 1 µM |
| CCN(CC)CCNC(=O)c1ccc(Nc2ncc(-c3cc[nH]c(=O)c3)n3ccnc23)cc1 | > 1 µM |
| NC(=O)c1ccc(Nc2ncc(-c3cn[nH]c3)n3ccnc23)nc1 | > 1 µM |
| CCN(CC)CCNC(=O)c1ccc(Nc2ncc(-c3ccc(-c4nn[nH]n4)cc3)n3ccnc23)cc1 | > 1 µM |
| CC(C)N1CCC(c2ccc(Nc3ncc(-c4cn[nH]c4)n4ccnc34)cc2)CC1 | > 1 µM |
| CC(C)N1CCN(c2ccc(Nc3ncc(-c4cn[nH]c4)n4ccnc34)cn2)CC1 | > 1 µM |
| O=C(O)c1cccc(Nc2ncc(-c3cn[nH]c3)n3ccnc23)c1 | > 1 µM |
| O=C1NCc2oc(-c3cnc(Nc4ccc(N5CCOCC5)cc4)c4nccn34)cc21 | > 1 µM |
| c1cn2c(-c3cn[nH]c3)cnc(Nc3ccc(OCCN4CCOCC4)cc3)c2n1 | > 1 µM |
| O=C(Cc1ccccc1)Nc1ccc(Nc2ncc(-c3cn[nH]c3)n3ccnc23)cn1 | 0.101 to 0.5 µM |
| Cc1cn2c(-c3cn[nH]c3)cnc(Nc3ccc(C(N)=O)cc3)c2n1 | > 1 µM |
| CCN(CC)CCNC(=O)c1ccc(Nc2ncc(-c3ccc(CC(=O)O)cc3)n3ccnc23)cc1 | > 1 µM |
